Reference for the values: PubChem BioAssay (NCI)

Assay: NCI Yeast Anticancer Drug Screen. Data for the mlh1 rad18 strain (AID 175)
Settings: S. cerevisiae mlh1 rad18 strain growth inhibition; at 5.0 µM (retest, dose inferred, filed as 0.5); active compounds read high
Compounds without any hit were thinned out: in the full panel of roughly 79,000, 15% have a hit.
Each entry below lists one item and its recorded growth inhibition value.

compound	growth inhibition [%]
O=C(CC(C[N+](=O)[O-])c1ccc2c(c1)OCO2)c1ccccc1 (stereo not drawn)	-4
C=CCOC(=O)OCCCO	-1
CCC(C)N(C(=O)c1ccccc1)c1ccccc1 (stereo not drawn)	-3
Cc1ccc(N2C(=O)CSC2=S)cc1Br	3
Cc1ccc(SCc2nc3ccccc3c(C)[n+]2[O-])cc1	-7
NC(=S)N/N=C1\NC(=O)/C(=C/c2ccc3c(c2)OCO3)S1	14
COC(=O)Nc1nc2ccc(C(C)(O)c3cccs3)cc2[nH]1 (stereo not drawn)	-5
O=[N+]([O-])/C(Cl)=C(\Nc1ccccc1)C(Cl)=C(Cl)Cl	83
CN(/N=C\c1cccc([N+](=O)[O-])c1)C(c1cccc([N+](=O)[O-])c1)N(C)/N=C/c1cccc([N+](=O)[O-])c1 (stereo not drawn)	0
COC(=O)c1ccc(CSc2ccc(OC)cc2)cc1	-21
Cc1cc(C)n2nc(N)c(C#N)c2c1C#N	-1
COc1ccc(/C=N/NS(=O)(=O)c2ccc(C)cc2)cc1	46
O=C1c2ccccc2C(=O)c2c(OCCOCCO)cccc21	1
NC(=O)CC1CCC(c2ccccc2)CC1 (stereo not drawn)	0
Nc1nc(-c2cccnc2)nc(N)c1N=O	25
C=C(C)C1(C(=O)OCC(Cl)(Cl)Cl)NC(=O)C(NC(=O)COc2ccccc2)=CO1 (stereo not drawn)	3
O=c1c(O)cc2c(O)oc3c(=O)c(O)c(O)c4c(O)oc1c2c43	41
C[Si](C)(CCC(=O)O)O[Si](C)(C)CCC(=O)O	-1
NC(=S)n1nc(-c2ccccc2)c(N=Nc2ccccc2Cl)c1-c1ccccc1	2
S=c1ncc2c([nH]1)C1c3ccccc3C2c2ccccc21	-1
Cc1cc(Cl)ccc1N1C(=O)C(=O)C(c2nc3ccccc3o2)C(=O)C1=O	25
COC1OC2=CCC3C(=O)NC(=O)C3C2[C@H](OCc2ccccc2)C1OCc1ccccc1 (stereo partly drawn)	4
COc1cc2c[n+](C)c3c4cc(OC)c(OCc5ccccc5)cc4c(OCc4ccccc4)cc3c2cc1OC	18
CC(NNC(=S)N1CCCC1)c1cccnn1 (stereo not drawn)	97
S=C=NCCCCCCN=C=S	79
N#CC(C#N)=Cc1ccc(Oc2ccccc2)cc1	2
C=C1CCCCC1C(C(=O)O)(c1ccccc1)c1ccccc1 (stereo not drawn)	92
O=C(OCC1OC(OCC(OC(=O)c2ccccc2)C(OC(=O)c2ccccc2)C(OC(=O)c2ccccc2)c2cnn(-c3ccccc3)n2)C(OC(=O)c2ccccc2)C(OC(=O)c2ccccc2)C1OC(=O)c1ccccc1)c1ccccc1 (stereo not drawn)	-4

----------
Each entry below lists one item and its recorded growth inhibition value.
Experiment: NCI Yeast Anticancer Drug Screen. Data for the mec2-1 strain (AID 157)
Conditions: S. cerevisiae mec2-1 strain, at 5.0 µM (retest, dose inferred, filed as 0.5), active compounds read high
This is part of a sample that, as a whole, favours compounds with a hit. Of some 79,000 tested, about 15% had one in any assay.
measured-attribute: growth inhibition (%)

molecule	number
CC1=C(C(=O)Nc2ccc([N+](=O)[O-])cc2)C(c2ccccc2F)C(C(=O)Nc2ccc([N+](=O)[O-])cc2)=C(C)N1	5
C=C(C)CCC(=C)C	3
O=C1OC(=O)c2ccc(S)c3cccc1c23	-25
CCCCOC(=O)c1n[nH]c(C)c1N=NN(C)C	96
COc1ccc(/C=C2\CCC(CN3CCOCC3)C2=O)cc1 (stereo not drawn)	92
COC(=O)[C@@]12OC[C@]34[C@H]([C@@H](O)[C@@H]1O)[C@@]1(C)CC(=O)C(OC(=O)CC(=O)OC5=C(C)[C@@H]6C[C@H]7OC(=O)[C@H](OC(=O)/C=C(\C)C(C)C)[C@H]8[C@]9(C(=O)OC)OC[C@]78[C@H]([C@@H](O)[C@@H]9O)[C@@]6(C)CC5=O)=C(C)[C@@H]1C[C@H]3OC(=O)[C@H](OC(=O)/C=C(\C)C(C)C)[C@@H]24	43
COc1ccc(CN2COc3c(cc(Cl)c4cccnc34)C2)cc1	-2
COc1cccc(CCCNC(=O)Cc2ccccc2CO)c1	9

----------
Each entry below lists one item and its recorded growth inhibition value.
Experiment: NCI Yeast Anticancer Drug Screen. Data for the rad50 strain (AID 155);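 note: 0% = growth of vehicle-only cultures of the same strain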
Conditions: S. cerevisiae rad50 strain growth inhibition; at 50.0 µM; active compounds read high
This is part of a sample that, as a whole, favours compounds with a hit. Of some 79,000 tested, about 15% had one in any assay.
measured-attribute: growth inhibition (%)

In [3]: df
Out[3]:
                                   molecule  unit_info  number
0  COC(=O)/C(=C/c1ccc(/C=C(/C(=O)O)c2ccc(OC)cc2)o1)c1ccccc1          %    8.35
1  O=C1C(Br)CCC1(c1ccccc1)c1ccccc1 (stereo unspecified)          %      97
2   Cc1cc2c(Br)cc(Br)c(O)c2nc1C(=O)c1ccccc1          %    31.8
3    S=c1nc(/C=C/c2ccc(Cl)c(Cl)c2)[nH][nH]1          %    79.5
4        COc1ccc(C(O)(c2ccccc2)c2ccccc2)cc1          %    99.1
5  CC(C)c1ccc2c(c1)CCC1C(C)(CNC(=O)S)CCCC21C.[Zn+2] (stereo unspecified)          %   -8.15

----------
Test: NCI Yeast Anticancer Drug Screen. Data for the bub3 strain (AID 167)
Conditions: S. cerevisiae bub3 mutant strain, at 50.0 µM, active compounds read high
The panel holds about 79,000 compounds, 15% with a hit somewhere; the sample as a whole holds those more often.
measured-attribute: growth inhibition (%)

>>> df
                                    compound  measured_attribute  number
 0               COc1ccc(OC)c2c1C=CC(Br)=CC2   growth inhibition    40.8
 1  O=[N+]([O-])c1cc(C(F)(F)F)ccc1SSc1ccc(C(F)(F)F)cc1[N+](=O)[O-]   growth inhibition    66.7
 2       c1ccc(CN(CCCOc2ccccc2)Cc2ccccc2)cc1   growth inhibition    79.8
 3             CCCCN(c1ccccc1)c1ncnc2c1ncn2C   growth inhibition    79.2
 4                   COC1=CC(=O)c2ncccc2C1=O   growth inhibition    46.6
 5  CN(C)CCCSc1c2ccccc2nc2cccc([N+](=O)[O-])c12   growth inhibition   -43.5
 6                        Cc1ccc(COCO)c(O)c1   growth inhibition   -0.15
 7  Cc1ccc(N2CC(O)CN(c3ccc(C)cc3)CC(O)C2)cc1 (stereo not given)   growth inhibition    15.3
 8  O=C1CC2Sc3ccccc3N=C2N1c1ccc(Cl)cc1Cl (stereo not given)   growth inhibition      92
 9  CC(=O)c1c2c(cc3c1CC1(Cc4ccccc4C1=O)C3)CCC2 (stereo not given)   growth inhibition    63.8
10  CN1CCN(CC(=O)c2c(-c3ccccc3)[nH]c3ccccc23)CC1   growth inhibition    -9.9
11            O=C1CCSC(=S)N1c1ccccc1C(F)(F)F   growth inhibition    99.2
12  Cc1cc(Cl)c(O)c(C(=O)C(=O)C(O)c2ccc3c(c2)OCO3)c1 (stereo not given)   growth inhibition    87.9
13  CCOC(=O)N1C2C=CC(=O)C(C=C2)N1C(=O)OCC (stereo not given)   growth inhibition    86.7
14  COC(O)C(=O)c1ccc2c(c1)CC1(C2)Cc2cc3c(cc2C1=O)CCC3 (stereo not given)   growth inhibition    31.6

----------
Assay: NCI Yeast Anticancer Drug Screen. Data for the bub3 strain (AID 167)
Settings: S. cerevisiae bub3 mutant strain, at 5.0 µM (retest, dose inferred, filed as 0.5), active compounds read high
This is part of a sample that, as a whole, favours compounds with a hit. Of some 79,000 tested, about 15% had one in any assay.
Each entry below lists one item and its recorded growth inhibition value.
measured-attribute: growth inhibition (%)

>>> df
                                   compound  unit_info  number
0  Cc1ccc2c(c1)C1(SCC(=O)N1c1ccc(Cl)cc1)C(=O)N2 (stereo not given)          %       4
1            O=C(O)c1ccc(OCc2ccccc2)c(Cl)c1          %       3
2  Cc1ccc(SC2=C(N(C)C)C(=O)c3ccccc3C2=O)cc1          %       4
3    CCC(=O)C(CCN(CC)CC)(CCN(CC)CC)c1ccccc1          %       1
4                Clc1ccc(SSc2ccc(Cl)cn2)nc1          %      -3
5                     Cn1cnc(=S)c2[nH]cnc21          %       0
6            c1ccc2c(c1)CCCc1cc3ccccc3nc1-2          %      18
7  C=C1C(=O)OC2CC3(C)CC(O)C(O)C(=C)C3CC12 (stereo not given)          %       0
8  N/C(=N\OC1(c2ccccc2)OC(=O)C(=O)/C1=C(/O)c1ccccc1)c1ccccc1 (stereo not given)          %       7
9  CC12CCC(=O)C=C1CCC1C2C(O)CC2(C)C(c3csc(N)n3)CCC12 (stereo not given)          %      27
